test: Chemical stability of the compound in at pH 7.4 measured at 72 hrs by HPLC based non-enzymatic stability assay; assay type: physicochemical; settings: buffer, read-out: Stability
In this section, each of the molecules is paired with its reported remaining at 72 h.
Measured endpoint: remaining at 72 h (%)

molecule="CN1C(=O)CCC(N2Cc3c(C#CCCCNC(=O)CCCCCNS(=O)(=O)c4ccc(-c5cnc(N)c(C(=O)Nc6ccccc6)n5)cc4)cccc3C2=O)C1=O (stereo not drawn)" assay_value=97
molecule="Nc1ncc(-c2ccc(S(=O)(=O)NCCCCCC(=O)N3CCN(c4ccc5c(c4)C(=O)N(C4CCC(=O)NC4=O)C5=O)CC3)cc2)nc1C(=O)Nc1ccccc1 (stereo not drawn)" assay_value=72
molecule="Nc1ncc(-c2ccc(S(=O)(=O)NCCCCC(=O)N3CCN(c4ccc5c(c4)C(=O)N(C4CCC(=O)NC4=O)C5=O)CC3)cc2)nc1-c1nnc(-c2ccccc2)o1 (stereo not drawn)" assay_value=77

###

experiment: Chemical stability of the compound in at pH 7.4 measured at 72 hrs by HPLC based non-enzymatic stability assay; format: physicochemical; details: buffer, read-out: Stability
Measured endpoint: remaining at 72 h (%)

compound="CNCc1ccc(-c2nnc(-c3nc(-c4ccc(S(=O)(=O)NCCCCCC(=O)NCCCC#Cc5cccc6c5CN(C5CCC(=O)NC5=O)C6=O)cc4)cnc3N)o2)cc1 (stereo unspecified)" measured_endpoint="remaining at 72 h" assay_value=102
compound="CNCc1ccc(-c2nnc(-c3nc(-c4ccc(S(=O)(=O)NCCCCC(=O)NCCCC#Cc5cccc6c5CN(C5CCC(=O)NC5=O)C6=O)cc4)cnc3N)o2)cc1 (stereo unspecified)" measured_endpoint="remaining at 72 h" assay_value=100
compound=Cc1ncsc1-c1ccc(CNC(=O)[C@@H]2C[C@@H](O)CN2C(=O)[C@@H](NC(=O)CCCCNS(=O)(=O)c2ccc(-c3cnc(N)c(-c4nnc(-c5ccccc5)o4)n3)cc2)C(C)(C)C)cc1 measured_endpoint="remaining at 72 h" assay_value=104
compound="Nc1ncc(-c2ccc(S(=O)(=O)NCCCCCC(=O)NCC#Cc3cccc4c3CN(C3CCC(=O)NC3=O)C4=O)cc2)nc1C(=O)Nc1ccccc1 (stereo unspecified)" measured_endpoint="remaining at 72 h" assay_value=109
compound="Nc1ncc(-c2ccc(S(=O)(=O)NCCCCCC(=O)NCCCC#Cc3cccc4c3CN(C3CCC(=O)NC3=O)C4=O)cc2)nc1C(=O)Nc1ccccc1 (stereo unspecified)" measured_endpoint="remaining at 72 h" assay_value=115
compound="Nc1ncc(-c2ccc(S(=O)(=O)NCCCCCC(=O)N3CCN(c4cccc(C(=O)NC5CCC(=O)NC5=O)n4)CC3)cc2)nc1C(=O)Nc1ccccc1 (stereo unspecified)" measured_endpoint="remaining at 72 h" assay_value=65
compound="Nc1ncc(-c2ccc(S(=O)(=O)NCCCCC(=O)NCC#Cc3cccc4c3CN(C3CCC(=O)NC3=O)C4=O)cc2)nc1-c1nnc(-c2ccccc2)o1 (stereo unspecified)" measured_endpoint="remaining at 72 h" assay_value=107
compound="Nc1ncc(-c2ccc(S(=O)(=O)NCCCCC(=O)N3CCN(c4ccc5c(c4)C(=O)N(C4CCC(=O)NC4=O)C5=O)CC3)cc2)nc1C(=O)Nc1ccccc1 (stereo unspecified)" measured_endpoint="remaining at 72 h" assay_value=74
compound="Nc1ncc(-c2ccc(S(=O)(=O)NCCOCCOCCOCCC(=O)N3CCN(c4ccc5c(c4)C(=O)N(C4CCC(=O)NC4=O)C5=O)CC3)cc2)nc1C(=O)Nc1ccccc1 (stereo unspecified)" measured_endpoint="remaining at 72 h" assay_value=74
compound="CNCc1ccc(-c2nnc(-c3nc(-c4ccc(S(=O)(=O)NCCCCCCC(=O)NCC#Cc5cccc6c5CN(C5CCC(=O)NC5=O)C6=O)cc4)cnc3N)o2)cc1 (stereo unspecified)" measured_endpoint="remaining at 72 h" assay_value=101
compound="Nc1ncc(-c2ccc(S(=O)(=O)NCCCCCCCC(=O)NCCOc3ccc(C4CCC(=O)NC4=O)cc3)cc2)nc1C(=O)Nc1ccccc1 (stereo unspecified)" measured_endpoint="remaining at 72 h" assay_value=100
